biological target: LC3B (Homo sapiens, UniProt Q9GZQ8); assay: Fluorescence Polarization (FP) Assay: displacement of FITC-labeled peptide from GST-LC3B; type: binding; conditions: Fluorescence Polarization assay; GST-LC3B 180 nM, FITC-labeled peptide 18 nM, 25° C.; read-out: IC50
Field: IC50. Provide a value for each of the compounds that follow.

Some compounds with known IC50 results, for comparison:
- compound: "COCCNC=C1C(=O)CC(c2ccccc2)CC1=O (stereo not drawn)"
  IC50: "100 to 1000 µM"
- compound: "CS(=O)(=O)N1CCN(CCNC=C2C(=O)CC(c3ccccc3)CC2=O)CC1 (stereo not drawn)"
  IC50: "< 3 µM"
- compound: "O=C1CC(c2ccc(OCCN3CCOCC3)nc2)CC(=O)C1=CNCCN1CCN(CCO)CC1 (stereo not drawn)"
  IC50: "100 to 1000 µM"

Could you tell me IC50 for each of these compounds? They are listed below.
1. Cn1cccc1C1CC(=O)C(=CNCCN2CCN(CCO)CC2)C(=O)C1 (stereo not drawn)
2. CC(O)=C1C(=O)CC(c2ccccc2)CC1=O (stereo not drawn)
3. CN(C)CCNC=C1C(=O)CC(c2cccc([N+](=O)[O-])c2)CC1=O (stereo not drawn)
4. C[S+]([O-])CCNC=C1C(=O)CC(c2ccccc2)CC1=O (stereo not drawn)
5. Cc1[nH]c2ccccc2c1C1CC(=O)C(=CN(C)C)C(=O)C1 (stereo not drawn)
6. CCN(CC)CCNC=C1C(=O)CC(c2ccccc2)CC1=O (stereo not drawn)

15 to 100 µM
15 to 100 µM
< 3 µM
15 to 100 µM
< 3 µM
< 3 µM
